Assay target: human GLP-1 receptor (human, UniProt P43220 24-463)
Assay details: cell-based or functional assay
*1 amine or outer side, *2 acyl side, *3 side chain or, on linkers, in order; H or OH if unused. Where no end group is shown, it is not given here. Side-chain parts run from the residue outwards. [ ]: non-standard residue; d: D form. The star is where a group is joined. Decanoyl(10-(4-HOOC-PhO)) = O=C(O)c1ccc(OCCCCCCCCCC(=O)*)cc1; αMePhe(2-F) = C[C@](N)(Cc1ccccc1F)C(=O)O; γGlu = O=C(O)[C@H](CCC(=O)[*:2])N[*:1]; αMeY = C[C@](N)(Cc1ccc(O)cc1)C(=O)O; αMeL = CC(C)C[C@](C)(N)C(=O)O; Orn = NCCC[C@H](N)C(=O)O; AEEA = NCCOCCOCC(=O)O; Aib = CC(C)(N)C(=O)O
Readout label: cAMP EC50 (1.0% HSA) (nM)
Quick reminder: number only, in nM, skip the unit.

# annotated cases, reported cAMP EC50 (1.0% HSA) shown
>>> observed_measurement("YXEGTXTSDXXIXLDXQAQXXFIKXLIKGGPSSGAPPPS (Y-Aib-EGT-αMeF(2F)-TSD-4Pal-Aib-I-αMeL-LD-Orn-QAQ-Aib-Orn-FIK((2-[2-(2-Amino-ethoxy)-ethoxy]-acetyl)3-(γ-Glu)-CO-(CH2)12-CO2H)-αMeY-LIK((2-[2-(2-Amino-ethoxy)-ethoxy]-acetyl)3-(γ-Glu)-CO-(CH2)12-CO2H)GGPSSGAPPPS-NH2) [Example 476]")
1.5
>>> observed_measurement("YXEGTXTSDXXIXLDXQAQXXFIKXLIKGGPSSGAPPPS (Y-Aib-EGT-αMeF(2F)-TSD-4Pal-Aib-I-αMeL-LD-Orn-QAQ-Aib-Orn-FIK(PEG6-(γ-Glu)-(10-(4-carboxyphenoxy)decanoyl))-αMeY-LIK(PEG6-(γ-Glu)-(10-(4-carboxyphenoxy)decanoyl))GGPSSGAPPPS-NH2) [Example 468]")
1.84

Qu. Record request: cAMP EC50 (1.0% HSA) value, item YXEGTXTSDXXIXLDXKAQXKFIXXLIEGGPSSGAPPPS (Y-Aib-EGT-αMeF(2F)-TSD-4Pal-Aib-I-αMeL-LD-Orn-K((2-[2-(2-Amino-ethoxy)-ethoxy]-acetyl)-(γ-Glu)-(10-(4-carboxyphenoxy)decanoyl))AQ-Aib-K((2-[2-(2-Amino-ethoxy)-ethoxy]-acetyl)-(γ-Glu)-(10-(4-carboxyphenoxy)decanoyl))FI-(D-Glu)-αMeY-LIEGGPSSGAPPPS-NH2) [Example 360]
Ans. 28.2

Qu. Another binder: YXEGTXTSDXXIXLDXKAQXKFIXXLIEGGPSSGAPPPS (Y-Aib-EGT-αMeF(2F)-TSD-4Pal-Aib-I-αMeL-LD-Orn-K((2-[2-(2-Amino-ethoxy)-ethoxy]-acetyl)2-CO-(CH2)12-CO2H)AQ-Aib-K((2-[2-(2-Amino-ethoxy)-ethoxy]-acetyl)2-CO-(CH2)12-CO2H)FI-(D-Glu)-αMeY-LIEGGPSSGAPPPS-NH2) [Example 384]
Ans. 5.32

Qu. Also need Y[Aib]EGT[αMePhe(2-F)]TSDV[Aib]I[αMeL]LD[Orn]IAQ[Aib]K([AEEA-AEEA-γGlu-Decanoyl(10-(4-HOOC-PhO))])FI[dE][αMeY]LIEGGPSSGAPPPSK([AEEA-AEEA-γGlu-Decanoyl(10-(4-HOOC-PhO))])-NH2 [Example 383] , thanks.
Ans. 92.2
